// provenance: patent US20120253017A1

Target: T1, human c-kit (recombinant, on BIAcore chip or beads) (human, UniProt P10721 26-524)
T1 construct: extracellular domain; also called hcKIT; biotinylated human c-kit
T1 sequence (P10721 26-524): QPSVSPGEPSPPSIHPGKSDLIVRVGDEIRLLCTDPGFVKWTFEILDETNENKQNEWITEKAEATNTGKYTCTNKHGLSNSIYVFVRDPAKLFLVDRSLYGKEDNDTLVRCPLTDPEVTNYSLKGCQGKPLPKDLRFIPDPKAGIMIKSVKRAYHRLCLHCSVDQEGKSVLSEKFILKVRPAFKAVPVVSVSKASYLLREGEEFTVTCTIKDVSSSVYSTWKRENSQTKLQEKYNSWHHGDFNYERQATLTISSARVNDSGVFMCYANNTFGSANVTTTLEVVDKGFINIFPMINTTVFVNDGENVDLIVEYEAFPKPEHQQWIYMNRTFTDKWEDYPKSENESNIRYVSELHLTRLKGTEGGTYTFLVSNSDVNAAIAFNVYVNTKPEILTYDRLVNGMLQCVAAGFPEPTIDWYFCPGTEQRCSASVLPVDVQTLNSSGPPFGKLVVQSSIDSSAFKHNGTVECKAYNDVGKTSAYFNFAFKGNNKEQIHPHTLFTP
Test: BIAcore, c-kit on SA chip

[
  {
    "binder": "DOM28h-26 (other, dAb, C-terminal FLAG tag (pDOM10)) DIQMTQSPSSLSASVGDRVTITCRASRNIDDELAWYQQKPGKAPKLLIAWGSDLQSGVPSRFSGSGSGTDFTLTISSLQPEDFATYYCGQFRRGPLTFGQGTKVEIKR",
    "Kd, nM": 621
  },
  {
    "binder": "DOM28m-7 (other, VH dAb, C-terminal FLAG tag (pDOM10); also called DOM28m-007) VH: EVQLLESGGGLVQPGGSLRLSCAASGFTFSNYAMGWVRQAPGKGLEWVSSISSSGFATYYADSVKGRFTISRDNSKNTLYLQMNSLRAEDTAVYYCAKSESRTFKAFDYWGQGTLVTVSS",
    "Kd, nM": 7200
  },
  {
    "binder": "DOM28h-43 (other, dAb, C-terminal FLAG tag (pDOM10); also called DOM28h-043) DIQMTQSPSSLSASVGDRVTITCRASSPIGESLKWYQQKPGKAPKLLIWGGSWLQSGVPSRFSGSGSGTDFTLTISSLQPEDFATYYCGPGRGWPLTFGQGTKVEIKR",
    "Kd, nM": 239
  },
  {
    "binder": "DOM28h-84 (other, dAb, C-terminal FLAG tag (pDOM10); also called DOM28h-084) EVQLLESGGGLVQPGGSLRLSCAASGFTFSSYGMSWVRQAPGKGLEWVSWISGTGSGTYYADSVKGRFTISRDNSKNTLYLQMNSLRAEDTAVYYCAKGVPGNNRALFDYWGQGTLVTVSS",
    "Kd, nM": 896
  }
]
